B1: PPFIA4 (parent)
chain: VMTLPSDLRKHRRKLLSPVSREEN

variants of: B1; experiment: protein stability index of a GFP-peptide fusion (GPS, HEK-293T) (PSI 1-6); higher = more stable; details: c terminus: a fixed tail appended;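 further: lentivirally expressed fusions sorted by FACS into six bins by GFP to DsRed ratio, PSI derived from sequencing read proportions per bin multiplied by bin number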
Property Measured: protein stability index

>>> recorded_result("VMTLPSDLRKHRRKLLCPVSREEN [S17C]")
3.65
>>> recorded_result("VMTLPSDLRKHRRKLLSVVSREEN [P18V]")
4.09
>>> recorded_result("VMTLPSYLRKHRRKLLSPVSREEN [D7Y]")
3.2
>>> recorded_result("VMTLPSDLRKHRRKLLSPVSGEEN [R21G]")
4
